# TEST_SUMMARY: In vitro stability in human whole blood
# Format: in vitro ADME
# RECORDED_CONDITIONS: male, whole blood diluted to 50% with PBS, pH 7.4, human whole blood diluted to 50% with PBS, 5 μM, 37° C., 240-minute incubation, read-out: Compound Half-life
# Excerpt: Materials: The following reagents were used as received: acetonitrile (HPLC grade, Burdick & Jackson, Madison, Wis.), phosphate buffered saline (PBS), pH 7.4 (Sigma-Aldrich, Co., St. Louis, Mo.), water (HPLC grade, JT Baker, Phillipsburg, N.J.), DMSO (EM Science, Merck KGaA, Darmstadt, Germany) and isopropanol (IPA, reagent grade, EMD Chemicals, Gibbstown, N.J.). […] Diazepam (Sigma-Aldrich) was used as an internal standard for quantitation. […]
Recorded half-life at 5 µM values for a group of compounds are listed next.

Observe how each entry below is paired with its result.
{"COMPOUND": "CN1CCC[C@H]1COc1nc2c(c(N3CCN(C(=O)/C=C/CN4CCCCC4)[C@@H](CC#N)C3)n1)CCN(c1cccc3ccccc13)C2 [Example 236]", "half-life at 5 µM": "3.33 to 16.7 h"}
{"COMPOUND": "Cc1cccc2cccc(N3CCc4c(nc(OC[C@@H]5CCCN5C)nc4N4CCN(C(=O)/C=C/CO)[C@@H](CC#N)C4)C3)c12 [Example 510]", "half-life at 5 µM": "16.7 to 33.3 h"}

Data request: Respond only with half-life at 5 µM recorded for Cc1cccc2cccc(N3CCc4c(nc(OC[C@@H]5CCCN5C)nc4N4CCN(C(=O)/C=C/CF)[C@@H](CC#N)C4)C3)c12 [Example 506]
Data returned: 16.7 to 33.3 h

----------
# TARGET_DESC: KRas G12C (Homo sapiens, UniProt P01116, G12C)
# Sequence (P01116 1-188 isoform P01116-2 G12C): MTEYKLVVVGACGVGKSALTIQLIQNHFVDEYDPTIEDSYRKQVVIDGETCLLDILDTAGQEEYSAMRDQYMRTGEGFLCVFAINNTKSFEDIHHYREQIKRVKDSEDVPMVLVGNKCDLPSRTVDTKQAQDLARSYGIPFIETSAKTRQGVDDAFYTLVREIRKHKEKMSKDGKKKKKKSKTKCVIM
# TEST_SUMMARY: Cellular inhibition of KRas G12C measured by Phospho-ERK in NCI-H358 cells
# Type: cell-based
# RECORDED_CONDITIONS: pERK(Thr202/Tyr204) normalized with GAPDH, NCI-H358 cells, 3 hours; read-out: IC50
pIC50: −log10 of the molar value.
PROPERTY_LABEL: pIC50

{"COMPOUND": "CN(C)C/C=C/C(=O)N1CCN(c2nc(OC[C@@H]3CCCN3C)nc3c2CCN(c2cc(O)cc4ccccc24)C3)CC1", "pIC50": "< 6.00"}
{"COMPOUND": "C=CC(=O)N1CCN(c2nc(OCCN(C)C)nc3c2CCN(c2cc(O)cc4ccccc24)C3)C[C@H]1C", "pIC50": "< 6.00"}
{"COMPOUND": "C=C(F)C(=O)N1CCN(c2ncnc3c2CCN(c2cccc4cccc(C)c24)C3)C[C@@H]1CC#N", "pIC50": "< 6.00"}

Alright, here's another compound for you.
Data request: Please report pIC50 for the following compound: C=CC(=O)N1CCN(c2nc(OC[C@@H]3CCCN3C)nc3c2CCN(c2cccc(C)c2C(F)(F)F)C3)CC1CC#N (stereo partly shown)
Data returned: 6.00 to 10.00

----------
# TARGET_DESC: KRas G12C (Homo sapiens, UniProt P01116, G12C)
# TEST_SUMMARY: Cellular inhibition of KRas G12C measured by Phospho-ERK in NCI-H358 cells
# Type: cell-based
# RECORDED_CONDITIONS: pERK(Thr202/Tyr204) normalized with GAPDH, NCI-H358 cells, 3 hours; read-out: IC50
PROPERTY_LABEL: IC50

Before answering, review these 4 worked examples.
{"COMPOUND": "C=CC(=O)N1CCN(c2nc(OC[C@@H]3CCN(C)C3)nc3c2CCN(c2cc(O)cc4ccccc24)C3)C[C@@H]1CC#N", "IC50": "0.1 to 1000 nM"}
{"COMPOUND": "C=CC(=O)N1CCN(c2nc(OC3CCN(C)C3)nc3c2CCN(c2cc(O)cc4ccccc24)C3)CC1 (stereo not drawn)", "IC50": "> 1000 nM"}
{"COMPOUND": "Cc1cccc2cccc(N3CCc4c(nc(OC[C@@H]5CCCN5C)nc4N4CCN(C(=O)C5=CC(=O)CC5)[C@@H](CC#N)C4)C3)c12", "IC50": "0.1 to 1000 nM"}
{"COMPOUND": "C=CC(=O)N1CCN(c2nc(OCCCN3CCOCC3)nc3c2CCN(c2cc(O)ccc2OC(C)C)C3)CC1", "IC50": "> 1000 nM"}

Data request: Return value of IC50 for input C=CC(=O)N1CCN(c2nc(OCCN3CCC[C@@H](OC)C3)nc3c2CCN(c2cc(O)cc4ccccc24)C3)CC1 , no commentary.
Data returned: > 1000 nM

Data request: Output IC50 of C=CC(=O)N1CCN(c2nc(OCCCN3C[C@H]4C[C@@H]3CO4)nc3c2CCN(c2cc(O)cc4ccccc24)C3)CC1
Data returned: 0.1 to 1000 nM

Data request: Find the measured IC50 of C=CC(=O)N1CCN(c2nc(OCCN3CCCC3)nc3c2CCN(c2cc(O)cc4ccccc24)C3)CC1 and report it.
Data returned: > 1000 nM

Data request: Please supply the value of reported IC50 for the item C=C(F)C(=O)N1CCN(c2nc(OCCCN3C[C@@H]4C[C@H]3CO4)nc3c2CCN(c2cccc4cccc(C)c24)C3)C[C@@H]1CC#N
Data returned: 0.1 to 1000 nM

Data request: // Input: C=C(F)C(=O)N1CCN(c2nc(OC[C@@H]3CCC(=O)N3C)nc3c2CCN(c2cccc4cccc(C)c24)C3)C[C@@H]1CC#N . Output its IC50 only.
Data returned: > 1000 nM

Data request: Identify measured IC50 associated with Cc1cccc2cccc(N3CCc4c(nc(OC[C@@H]5CCCN5C)nc4N4CCN(C(=O)/C=C/c5cccnc5)[C@@H](CC#N)C4)C3)c12
Data returned: 0.1 to 1000 nM

Data request: Please report the measured IC50 for C=CC(=O)N1CCN(c2nc(OC[C@@H]3CCCN3C)nc3c2CCN(c2cccc4ccccc24)C3)CC1COC (stereo partly drawn) [Example 256]
Data returned: > 1000 nM
